Property: HUVEC survival (n = 1) 1:10 dilution of supernatant (RLU); scope: individual binders
- Measured on: human KDR (VEGFR2) on cells (human, UniProt P35968 20-1356)
- Sequence (P35968 20-1356): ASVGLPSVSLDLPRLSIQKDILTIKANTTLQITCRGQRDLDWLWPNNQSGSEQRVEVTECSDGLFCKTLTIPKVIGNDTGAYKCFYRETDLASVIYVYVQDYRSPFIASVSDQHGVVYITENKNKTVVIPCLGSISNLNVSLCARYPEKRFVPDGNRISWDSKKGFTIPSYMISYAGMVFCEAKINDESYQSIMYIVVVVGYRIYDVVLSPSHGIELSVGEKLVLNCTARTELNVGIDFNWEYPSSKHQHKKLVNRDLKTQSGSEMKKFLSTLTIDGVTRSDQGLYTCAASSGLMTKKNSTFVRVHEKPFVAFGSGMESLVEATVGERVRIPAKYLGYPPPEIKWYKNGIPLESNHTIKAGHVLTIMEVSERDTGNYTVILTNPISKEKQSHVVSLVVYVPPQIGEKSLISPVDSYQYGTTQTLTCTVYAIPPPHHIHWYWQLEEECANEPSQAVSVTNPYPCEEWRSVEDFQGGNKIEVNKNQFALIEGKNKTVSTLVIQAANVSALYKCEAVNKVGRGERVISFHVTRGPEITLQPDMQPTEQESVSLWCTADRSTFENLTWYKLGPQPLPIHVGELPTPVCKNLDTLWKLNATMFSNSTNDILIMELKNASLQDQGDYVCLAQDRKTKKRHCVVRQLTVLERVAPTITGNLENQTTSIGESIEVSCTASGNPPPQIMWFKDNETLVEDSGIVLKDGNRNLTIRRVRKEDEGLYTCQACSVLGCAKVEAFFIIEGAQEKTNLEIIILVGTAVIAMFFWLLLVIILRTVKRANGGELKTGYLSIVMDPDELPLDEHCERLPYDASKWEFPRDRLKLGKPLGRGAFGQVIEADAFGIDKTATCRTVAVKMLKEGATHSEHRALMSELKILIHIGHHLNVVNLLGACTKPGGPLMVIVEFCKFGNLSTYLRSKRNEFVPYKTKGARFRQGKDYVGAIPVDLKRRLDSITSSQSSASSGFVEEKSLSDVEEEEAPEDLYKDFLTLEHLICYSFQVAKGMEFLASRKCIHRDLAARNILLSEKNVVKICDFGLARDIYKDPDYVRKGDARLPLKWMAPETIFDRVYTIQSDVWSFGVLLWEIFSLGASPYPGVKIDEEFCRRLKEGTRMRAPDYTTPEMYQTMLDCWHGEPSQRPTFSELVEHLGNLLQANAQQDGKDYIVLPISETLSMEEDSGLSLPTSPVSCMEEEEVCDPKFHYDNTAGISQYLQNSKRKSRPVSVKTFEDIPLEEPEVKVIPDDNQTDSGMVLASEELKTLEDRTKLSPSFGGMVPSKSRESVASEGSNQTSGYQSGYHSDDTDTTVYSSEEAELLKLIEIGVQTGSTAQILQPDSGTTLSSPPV
- Test summary: cell-based or functional assay
Property measured: HUVEC survival (n = 1) 1:10 dilution of supernatant (RLU)

Binder	Quantitative readout
anti-KDR monoclonal antibody 27A3 (antibody, V domains shown, Fully human mAb from XenoMouse (IgG2 or IgG4 strain); hybridoma supernatant) VH: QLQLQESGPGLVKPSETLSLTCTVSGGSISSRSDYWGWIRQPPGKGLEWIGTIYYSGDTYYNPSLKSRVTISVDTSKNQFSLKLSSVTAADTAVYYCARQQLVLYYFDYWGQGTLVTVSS VL: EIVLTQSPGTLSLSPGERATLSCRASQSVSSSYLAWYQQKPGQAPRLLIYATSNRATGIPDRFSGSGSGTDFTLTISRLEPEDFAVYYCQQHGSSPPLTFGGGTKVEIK	17300
anti-KDR monoclonal antibody 31E11 (antibody, V domains shown, Fully human mAb from XenoMouse (IgG2 or IgG4 strain); hybridoma supernatant) VH: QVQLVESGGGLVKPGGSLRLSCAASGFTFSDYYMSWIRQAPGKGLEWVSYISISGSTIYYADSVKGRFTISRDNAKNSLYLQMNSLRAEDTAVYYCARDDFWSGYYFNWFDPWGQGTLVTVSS VL: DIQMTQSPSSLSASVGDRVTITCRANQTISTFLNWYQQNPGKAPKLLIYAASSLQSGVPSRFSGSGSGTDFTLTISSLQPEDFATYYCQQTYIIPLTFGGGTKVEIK	9140
anti-KDR monoclonal antibody 21H9 (antibody, V domains shown, Fully human mAb from XenoMouse (IgG2 or IgG4 strain); hybridoma supernatant) VH: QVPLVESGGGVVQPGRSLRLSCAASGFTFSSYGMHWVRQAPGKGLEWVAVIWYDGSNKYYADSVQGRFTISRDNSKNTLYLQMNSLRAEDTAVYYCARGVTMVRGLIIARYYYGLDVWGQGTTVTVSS VL: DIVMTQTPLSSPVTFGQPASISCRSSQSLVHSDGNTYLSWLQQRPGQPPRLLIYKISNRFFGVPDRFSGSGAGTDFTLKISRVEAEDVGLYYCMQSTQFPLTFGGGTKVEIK	43800
